- Test system: IGROV-1
- ASSAY_NAME: NCI tumour cell line growth inhibition, 48 h
Calls of active or inactive are those of the source. Cut-off read from the data, not from the text of the source: active = GI50 up to about 1.1 µM and inactive = higher.
# valid calls are active, inactive; nothing else

# COMPOUND, ASSIGNED_CATEGORY
records = [
    ("CCNC(=O)OCC1C2=C(C(=O)C(C)=C(N)C2=O)N2CC3C(N3C)C12OC (stereo not drawn)", "inactive"),
    ("CSc1ccc(/C=C2\\N=C(c3ccccc3)N(/N=C/c3cc4cc(C)ccc4nc3Cl)C2=O)cc1", "inactive"),
    ("CSc1nnc(CCC(=O)Nc2c(C)cccc2C)o1", "inactive"),
    ("CCCCN1/C(=N/Nc2n[nH]c(=O)c3ccccc23)SCC1c1ccc(Cl)cc1 (stereo not drawn)", "inactive"),
    ("Cc1cc(C(C)C)cc(=O)c(O)c1", "inactive"),
    ("C=C=C(CC1CCCCC1=O)S(=O)(=O)c1ccccc1 (stereo not drawn)", "inactive"),
    ("O=C(/C=C(\\O)c1cc(-c2ccccc2)n(-c2ccccc2)n1)c1ccccc1", "inactive"),
    ("COc1ccc2cc(/C=N/NC(=O)Nc3ccccc3)ccc2c1", "inactive"),
]

Q: Which outcome was assigned to CC/C(Cl)=N\OC(=O)Nc1ccccc1OC(F)(F)F in this test?
Result: inactive

###

- Test system: M14
- ASSAY_NAME: NCI tumour cell line growth inhibition, 48 h
Activity calls are given as the source filed them. Cut-off read from the data, not from the text of the source: active = GI50 up to about 1.1 µM and inactive = higher.
Please respond with reported GI50 for every item in the list.

# COMPOUND, MEASURED_TARGET, OBS_VALUE
data = [
    ("O=C(c1nc2ccccc2nc1O)C(O)c1ccco1 (stereo unspecified)", "M14", "> 100 µM (inactive)"),
    ("CC(C)c1cc(C(F)(F)F)nc(NNc2nc(C(C)C)cc(C(F)(F)F)n2)n1", "M14", "67.9 µM (inactive)"),
]

Report GI50 for each item below.
1. C[C@]12CCc3nn(-c4ccccc4)nc3C1CC[C@@H]1C2CC[C@]2(C)C(=O)CCC12 (stereo partly specified)
2. Cc1sc(Nc2ccc(Nc3nc(-c4ccccc4)c(C)s3)cc2)nc1-c1ccccc1
3. Cc1nc(C)c(N2CCN(C#N)CC2)c(O)n1
4. COc1ccc2c(c1)C(=O)C1CCC(=O)N1C2c1ccc2c(c1)OCO2 (stereo unspecified)

Result:
> 100 µM (inactive)
61.2 µM (inactive)
> 100 µM (inactive)
12.9 µM (inactive)

###

- System: CCRF-CEM
- ASSAY_NAME: NCI tumour cell line growth inhibition, 48 h
Active and inactive are the calls of the source. Cut-off read from the data, not from the text of the source: active = GI50 up to about 1.1 µM and inactive = higher.
# valid calls are yes (1) = active, no (0) = inactive; nothing else

For orientation, consider the following solved cases.
# MOLECULE, ASSIGNED_CATEGORY
rows = [
    ("Cc1ccccc1/N=N/c1cc(C)c(/N=N/c2c(O)ccc3ccccc23)cc1C", "no (0)"),
    ("O=C(CCC(=O)Nc1ccccc1C(F)(F)F)N/N=C1\\C(=N\\NC(=O)CCC(=O)Nc2ccccc2C(F)(F)F)C(c2ccc3c(c2)OCO3)Oc2ccccc21 (centres undefined)", "no (0)"),
    ("Cc1sc(N)c(S(=O)(=O)c2ccccc2)c1C", "no (0)"),
    ("CC(C)C(=O)/C=C/c1ccccc1", "no (0)"),
    ("Cn1c(-c2cccs2)cc(-c2ccsc2)c1-c1ccsc1", "no (0)"),
    ("N#CCCN(c1ccc(-c2nnc(NC(=O)CNNC(=O)CC(=O)Nc3ccccc3)s2)cc1)S(=O)(=O)c1ccccc1", "no (0)"),
    ("COc1cc(Nc2nc3ccc(C(F)(F)F)cc3nc2C(=O)O)cc(OC)c1OC", "no (0)"),
    ("CN1CCC(n2[nH]c(-c3ccccc3)c(Cc3ccccc3)c2=O)CC1", "no (0)"),
]

Q: Which outcome was assigned to Cc1ccc(-c2c(C#N)c(-c3ccc([N+](=O)[O-])cc3)c(C#N)c(=O)n2NS(=O)(=O)c2ccccc2)cc1 in this test?
Result: no (0)

Q: Which outcome was assigned to COc1ccc(/N=C2\C(=O)Nc3ccc(Br)cc32)cc1 in this test?
Result: no (0)

Q: Which outcome was assigned to N=c1c2sc3nc4ccccc4n3c2ncn1Cc1ccccc1 in this test?
Result: no (0)

Q: Which outcome was assigned to CN(C)c1ccc(/N=C2/NC(=N\c3ccccc3)/C(=N/c3ccccc3)S2)cc1 in this test?
Result: no (0)

Q: Which outcome was assigned to COc1ccc(-c2[nH]c3c4c(nc5c(c24)C(=O)CC(C)(C)C5)CC(C)(C)C3)cc1 in this test?
Result: no (0)

Q: Which outcome was assigned to O=C(c1ccccc1)C1C(C(=O)c2ccccc2)C(c2ccccc2)N(c2ccccc2)C1c1ccccc1 (centres undefined) in this test?
Result: no (0)

Q: Which outcome was assigned to O=C1CSC(c2cccc(Cl)c2)N1c1ccc(-c2ccc(-n3c(-c4ccccc4)nc4ccccc4c3=O)cc2)cc1 (centres undefined) in this test?
Result: no (0)

Q: Which outcome was assigned to O=C1NC2(O)c3ccccc3C(=O)C2(O)N1c1ccccc1 (centres undefined) in this test?
Result: no (0)

Q: Which outcome was assigned to Cc1nc2c(c(N3CCN(C)CC3)n1)Cc1ccccc1-2 in this test?
Result: no (0)

Q: Which outcome was assigned to OCc1ccc2c(c1)CC1(C2)Cc2cc3c(cc2C1O)CCC3 (centres undefined) in this test?
Result: no (0)

Q: Which outcome was assigned to O=C1C2=C(c3ccccc31)C(c1ccc(Cl)cc1)NC(S)=N2 (centres undefined) in this test?
Result: no (0)

Q: Which outcome was assigned to CCCCN1C(=O)C[C@H]2[C@@H]3CCc4cc(OCCN5CCCC5)ccc4[C@H]3CC[C@]2(C)C1=O in this test?
Result: no (0)

Q: Which outcome was assigned to COc1ccc(C23C(=O)c4ccccc4N2O[C@H]2C(=O)N(c4ccccc4)C(=O)[C@H]23)cc1 (some centres undefined) in this test?
Result: no (0)

Q: Which outcome was assigned to CC(=O)n1nc(-c2ccccc2)n(/N=C/c2ccc([N+](=O)[O-])o2)c1=O in this test?
Result: no (0)

Q: Which outcome was assigned to COc1ccc2c(c1)C(=O)C1CCC(=O)N1C2c1ccc2c(c1)OCO2 (centres undefined) in this test?
Result: no (0)

Q: Which outcome was assigned to CN(C)CCCCN1CCc2c(n(C)c3ccccc23)C1=O in this test?
Result: no (0)

###

- System: SK-MEL-2
- ASSAY_NAME: NCI tumour cell line growth inhibition, 48 h
The source made the active and inactive calls. Cut-off read from the data, not from the text of the source: active = GI50 up to about 1.1 µM and inactive = higher.
# valid calls are active, inactive; nothing else

For orientation, consider the following solved cases.
# COMPOUND, MEASURED_TARGET, ASSIGNED_CATEGORY
measured = [
    ("CCO/C=N\\C1=C(C#N)SC2=N/C(=C\\c3ccco3)C(=O)N21", "SK-MEL-2", "inactive"),
    ("COC(=O)/C=C(\\C(=O)OC)c1cc(C)c2cc(C(C)C)ccc(C)c1-2", "SK-MEL-2", "inactive"),
    ("COC1=CC(=O)c2c(O)c3c(c(O)c2C1=O)OC1(Oc2c(cc4cc(C)oc(=O)c4c2O)CC1O)C3O (stereo not given)", "SK-MEL-2", "inactive"),
    ("COc1ccc2c(c1)C(=O)C1CCC(=O)N1C2c1ccc2c(c1)OCO2 (stereo not given)", "SK-MEL-2", "inactive"),
    ("C[N+](C)(Cc1ccc(NC(=O)CCCC(=O)ON2C(=O)CCC2=O)cc1)c1ccccc1", "SK-MEL-2", "active"),
]

Q: Which outcome was assigned to CS(=O)(=O)OCC1=C(COS(C)(=O)=O)C(=O)c2c(O)ccc(O)c2C1=O in this test?
Result: inactive

Q: Which outcome was assigned to C/C(=N\NC(=S)N1CCN(c2ccccn2)CC1)c1cccc(C)n1 in this test?
Result: inactive

Q: Which outcome was assigned to Cc1ccc(C2(C)NC(=S)N(NC(N)=S)C2=S)cc1 (stereo not given) in this test?
Result: inactive

Q: Which outcome was assigned to COC(=O)c1cc(C)n(CN(Cn2nc(C(=O)OC)cc2C)c2ccccc2)n1 in this test?
Result: inactive

Q: Which outcome was assigned to Cn1cc(C(=O)c2ccccc2)cc(C(=O)c2ccccc2)c1=O in this test?
Result: inactive

###

- Tested on: MDA-MB-231
- ASSAY_NAME: NCI tumour cell line growth inhibition, 48 h
Calls of active or inactive are those of the source. No stated cut-off is given here; in the data, active = GI50 up to about 1.1 µM and inactive = higher.
# valid calls are active, inactive; nothing else

# COMPOUND, ASSIGNED_CATEGORY
measured = [
    ("Cc1cc(NC(=O)NC(=O)c2ccccc2NC(=O)CN(C)C)ccc1Oc1ncc(Br)cn1", "inactive"),
    ("Cc1nn(CNc2ccc(F)c(Cl)c2)c(=S)n1/N=C/c1ccc(-c2ccc(Cl)cc2Cl)o1", "inactive"),
    ("CC1OC(CC(=O)O)CC2=C1C(=O)c1c(O)cccc1C2=O (stereo not given)", "active"),
    ("CC1(C)CC2(C)CC1CC2(O)c1ccccc1 (stereo not given)", "inactive"),
]

Let's switch to this compound now.
Q: Which outcome was assigned to CN(C)S(=O)(=O)c1ccc2c(c1)/C(=C1/Nc3ccccc3C1=O)C(=O)N2 in this test?
Result: inactive
